# experimental.protocol: NCI Yeast Anticancer Drug Screen. Data for the mec2-1 strain (AID 157)
# measurement.setup: S. cerevisiae mec2-1 strain, at 50.0 µM (retest, dose inferred, filed as 5.0)
About 79,000 compounds went through this panel and 15% of them were active in at least one assay; those are over-represented in the sample as a whole. Activity calls are given as the source filed them. No stated cut-off is given here; in the data, active means growth inhibition above about 70%; inactive means the rest.
Give your call using only these classes: active, inactive

Past entries and their recorded results:
molecule	group.label
O=C(O)C1CCCCC1.[Ag]	active
CN(C)CC1CCc2c(ccc3ccccc23)C1=O (stereo unspecified)	inactive
Nc1ncnc2nc(-c3ccc(C[P+](c4ccccc4)(c4ccccc4)c4ccccc4)cc3)[nH]c12	inactive
O=Cc1[nH]c(=S)[nH]c(=O)c1CCCc1ccccc1	active

What did the test return for `O=[N+]([O-])C(=C1Nc2ccccc2N1)C(Cl)=C(Cl)Cl` ?
inactive

Item: `CCCCCCCCNc1ccc(Cl)cc1`
active
